- target.system: Neprilysin (Rattus norvegicus, UniProt P07861)
- Sequence (P07861 whole entry): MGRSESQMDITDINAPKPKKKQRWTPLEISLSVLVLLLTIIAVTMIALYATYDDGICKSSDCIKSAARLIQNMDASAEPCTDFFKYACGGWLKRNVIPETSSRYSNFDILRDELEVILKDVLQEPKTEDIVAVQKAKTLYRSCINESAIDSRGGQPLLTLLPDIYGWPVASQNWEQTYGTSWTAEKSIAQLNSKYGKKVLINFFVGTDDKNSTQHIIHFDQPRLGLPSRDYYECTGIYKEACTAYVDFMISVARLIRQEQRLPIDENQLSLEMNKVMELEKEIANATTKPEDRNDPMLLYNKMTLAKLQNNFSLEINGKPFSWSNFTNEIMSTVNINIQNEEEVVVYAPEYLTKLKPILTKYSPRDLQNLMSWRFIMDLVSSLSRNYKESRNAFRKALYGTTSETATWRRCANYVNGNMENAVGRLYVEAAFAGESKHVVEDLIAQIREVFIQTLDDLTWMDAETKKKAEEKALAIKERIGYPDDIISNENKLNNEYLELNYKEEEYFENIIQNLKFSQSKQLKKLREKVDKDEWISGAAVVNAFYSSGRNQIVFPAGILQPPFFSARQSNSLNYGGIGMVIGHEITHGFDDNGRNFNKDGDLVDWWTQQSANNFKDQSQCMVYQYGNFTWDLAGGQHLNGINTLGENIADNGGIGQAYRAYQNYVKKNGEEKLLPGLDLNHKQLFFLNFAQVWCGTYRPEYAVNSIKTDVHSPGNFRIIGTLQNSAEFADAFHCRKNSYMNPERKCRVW
- procedure.details: In vitro inhibition of Neutral Endopeptidase isolated from rat kidney.
- test.conditions: read-out: I50
pIC50: −log10 of the molar value.
experimental.endpoint: pIC50

| smi | pIC50 |
| --- | --- |
| O=C(O)CN1C(=O)[C@@H](NC(=O)[C@@H](CS)Cc2ccccc2)CSc2ccccc21 | 9.00 |

1 = O=C(O)CN1CSCC[C@H](NC(=O)[C@@H](S)Cc2ccccc2)C1=O
2 = O=C(O)CN1C(=O)[C@@H](NC(=O)[C@@H](CS)Cc2ccccc2)CS[C@H]1c1ccccc1
3 = O=C(O)CN1C(=O)[C@H](NC(=O)[C@@H](CS)Cc2ccccc2)CS[C@@H]1c1ccccc1
4 = O=C(O)CN1C[C@H](c2ccccc2)SC[C@H](NC(=O)[C@@H](S)Cc2ccccc2)C1=O
5 = O=C(O)CN1CCSC[C@H](NC(=O)[C@@H](S)Cc2ccccc2)C1=O
Put the compounds in ascending order of pIC50. Answer format: list of labels, ordered as asked.
4, 1, 5, 3, 2
(4: 5.69, 1: 6.27, 5: 6.61, 3: 6.90, 2: 8.57)

P = O=C(O)CN1C(=O)[C@@H](NC(=O)[C@@H](CS)Cc2ccccc2)CS[C@@H]1c1ccccc1
Q = O=C(O)CN1C[C@@H](c2ccccc2)SC[C@H](NC(=O)[C@@H](S)Cc2ccccc2)C1=O
Kindly identify the item with the lower pIC50 figure among these two: P and Q // caller expects the label of the chosen entry
Q
(Q: 7.00, P: 8.60)

====

- target.system: Angiotensin-converting enzyme (Rattus norvegicus)
- Sequence (P47820 whole entry): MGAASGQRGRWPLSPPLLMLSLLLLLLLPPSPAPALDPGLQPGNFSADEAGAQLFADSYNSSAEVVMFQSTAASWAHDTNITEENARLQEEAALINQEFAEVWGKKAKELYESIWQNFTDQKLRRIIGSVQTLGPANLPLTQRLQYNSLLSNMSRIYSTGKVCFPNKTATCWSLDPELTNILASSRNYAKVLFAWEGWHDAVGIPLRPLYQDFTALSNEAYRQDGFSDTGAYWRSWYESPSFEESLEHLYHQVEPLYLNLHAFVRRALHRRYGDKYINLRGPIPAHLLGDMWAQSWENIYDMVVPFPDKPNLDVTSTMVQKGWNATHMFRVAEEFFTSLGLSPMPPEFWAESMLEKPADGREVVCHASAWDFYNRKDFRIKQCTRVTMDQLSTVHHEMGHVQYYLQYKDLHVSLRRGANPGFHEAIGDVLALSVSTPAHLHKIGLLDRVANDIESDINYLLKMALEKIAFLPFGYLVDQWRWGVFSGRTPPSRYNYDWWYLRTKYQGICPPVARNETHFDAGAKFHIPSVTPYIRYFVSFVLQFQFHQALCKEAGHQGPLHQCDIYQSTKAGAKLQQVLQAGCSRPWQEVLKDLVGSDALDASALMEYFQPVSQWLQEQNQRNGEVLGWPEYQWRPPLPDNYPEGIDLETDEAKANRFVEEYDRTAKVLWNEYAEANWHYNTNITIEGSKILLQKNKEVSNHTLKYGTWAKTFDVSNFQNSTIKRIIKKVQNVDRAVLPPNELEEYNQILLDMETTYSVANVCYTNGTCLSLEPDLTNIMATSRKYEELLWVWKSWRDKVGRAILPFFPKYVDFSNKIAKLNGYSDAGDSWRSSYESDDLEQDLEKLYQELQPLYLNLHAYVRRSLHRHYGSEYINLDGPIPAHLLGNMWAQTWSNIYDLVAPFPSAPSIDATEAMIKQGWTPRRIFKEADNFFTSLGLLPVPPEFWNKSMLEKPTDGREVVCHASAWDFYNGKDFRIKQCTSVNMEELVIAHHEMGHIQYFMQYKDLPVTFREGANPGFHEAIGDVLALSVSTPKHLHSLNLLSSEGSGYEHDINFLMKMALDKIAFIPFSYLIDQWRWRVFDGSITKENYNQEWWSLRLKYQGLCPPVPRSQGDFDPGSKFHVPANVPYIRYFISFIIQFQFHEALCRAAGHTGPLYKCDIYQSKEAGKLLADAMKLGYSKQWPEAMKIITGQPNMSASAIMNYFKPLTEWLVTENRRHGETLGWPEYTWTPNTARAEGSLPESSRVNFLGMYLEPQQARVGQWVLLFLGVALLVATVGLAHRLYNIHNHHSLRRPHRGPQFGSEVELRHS
- procedure.details: In vitro inhibition of angiotensin converting enzyme isolated from rat lung.
- test.conditions: read-out: I50
experimental.endpoint: IC50 (nM)

| smi | target.system | uom | IC50 |
| --- | --- | --- | --- |
| O=C(O)CN1C[C@H](c2ccccc2)SC[C@H](NC(=O)[C@@H](S)Cc2ccccc2)C1=O | Angiotensin-converting enzyme (Rattus norvegicus) | nM | 290 |
| O=C(O)CN1CSCC[C@H](NC(=O)[C@@H](S)Cc2ccccc2)C1=O | Angiotensin-converting enzyme (Rattus norvegicus) | nM | 61 |
| CC1(C)CSC[C@H](NC(=O)[C@@H](S)Cc2ccccc2)C(=O)N1CC(=O)O | Angiotensin-converting enzyme (Rattus norvegicus) | nM | 13.8 |
| O=C(O)CN1C[C@@H](c2ccccc2)SC[C@H](NC(=O)[C@@H](S)Cc2ccccc2)C1=O | Angiotensin-converting enzyme (Rattus norvegicus) | nM | 40 |
| O=C(O)CN1CCSC[C@H](NC(=O)[C@@H](S)Cc2ccccc2)C1=O | Angiotensin-converting enzyme (Rattus norvegicus) | nM | 67 |

a = O=C(O)CN1C(=O)[C@@H](NC(=O)[C@@H](CS)Cc2ccccc2)CS[C@H]1c1ccccc1
b = O=C(O)CN1C(=O)[C@@H](NC(=O)[C@@H](CS)Cc2ccccc2)CSc2ccccc21
c = O=C(O)CN1C(=O)[C@@H](NC(=O)[C@@H](S)Cc2ccccc2)CS[C@@H]1c1ccccc1
d = C[C@@H]1SCC[C@H](NC(=O)[C@@H](S)Cc2ccccc2)C(=O)N1CC(=O)O
// sort entries: IC50, high to low Answer format: list of labels, ordered as asked.
a, c, b, d

a = O=C(O)CN1CCSC[C@H](NC(=O)[C@@H](CS)Cc2ccccc2)C1=O
b = O=C(O)CN1C(=O)[C@@H](NC(=O)[C@@H](S)Cc2ccccc2)CSC[C@H]1c1ccccc1
Could you point out whether the larger IC50 belongs to a or to b ? // caller expects the label of the chosen entry
a
(a: 100 nM, b: 29 nM)

1 = O=C(O)CN1C(=O)[C@@H](NC(=O)[C@@H](CS)Cc2ccccc2)CSC[C@H]1c1ccccc1
2 = O=C(O)CN1C(=O)[C@@H](NC(=O)[C@@H](S)Cc2ccccc2)CSc2ccccc21
3 = O=C(O)CN1C(=O)[C@@H](NC(=O)[C@@H](S)Cc2ccccc2)CS[C@H]1c1ccccc1
// sort entries: IC50, high to low Answer format: list of labels, ordered as asked.
3, 1, 2

====

- target.system: UniProt P47820
- procedure.details: In vitro inhibition of angiotensin converting enzyme isolated from rat lung.
- test.conditions: read-out: I50
pIC50: −log10 of the molar value.
experimental.endpoint: pIC50

| smi | pIC50 |
| --- | --- |
| O=C(O)CN1C(=O)[C@@H](NC(=O)[C@@H](CS)Cc2ccccc2)CS[C@@H]1c1ccccc1 | 6.78 |

A = O=C(O)CN1C(=O)[C@H](NC(=O)[C@@H](S)Cc2ccccc2)CS[C@@H]1c1ccccc1
B = O=C(O)CN1C(=O)[C@H](NC(=O)[C@@H](CS)Cc2ccccc2)CS[C@@H]1c1ccccc1
C = O=C(O)CN1C[C@@H](c2ccccc2)SC[C@H](NC(=O)[C@@H](CS)Cc2ccccc2)C1=O
Put the compounds in ascending order of pIC50. Answer format: list of labels, ordered as asked.
B, C, A
